Source listed as ChEMBL document CHEMBL5537171.

- PROTOCOL DESCRIPTION: Tmax in BALB/c mouse at 10 mg/kg, sc by LC-MS/MS analysis
- Type: ADME, organism-based
- CONDITION DETAILS: in vivo
PROPERTY LABEL: Tmax (min)
Express your answer in min, writing the number without its unit.

Tmax for `CCc1c(F)ccc2cc(O)cc(-c3ncc4c(N5C[C@H]6CC[C@@H](C5)N6)nc(OC[C@@H]5CCCN5CCCCOCC(=O)N[C@H](C(=O)N5C[C@H](O)C[C@H]5C(=O)N[C@@H](C)c5ccc(-c6scnc6C)cc5)C(C)(C)C)nc4c3F)c12` is 15

###

Measured IC50 by item
- PROTOCOL DESCRIPTION: Competitive binding affinity to His-tagged VHL/Elongin C/Elongin B (unknown origin) by FP assay
- Set-up: species or system Homo sapiens
Express your answer in nM, writing the number without its unit.

Answered examples (5):
| MOLECULAR STRING | IC50 (nM) |
| --- | --- |
| CCc1cccc2cc(O)cc(-c3ncc4c(N5C[C@H]6CC[C@@H](C5)N6)nc(OC[C@@H]5CCCN5CCCCOCC(=O)N[C@H](C(=O)N5C[C@H](O)C[C@H]5C(=O)N[C@@H](C)c5ccc(-c6scnc6C)cc5)C(C)(C)C)nc4c3F)c12 | 407 |
| CCc1cccc2cc(O)cc(-c3ncc4c(N5C[C@H]6CC[C@@H](C5)N6)nc(OC[C@@H]5CCCN5CCC(=O)NCCC(=O)N[C@H](C(=O)N5C[C@H](O)C[C@H]5C(=O)N[C@@H](C)c5ccc(-c6scnc6C)cc5)C(C)(C)C)nc4c3F)c12 | 2270 |
| CCc1c(F)ccc2cc(O)cc(-c3ncc4c(N5C[C@H]6CC[C@@H](C5)N6)nc(OC[C@@H]5CCCN5CCCCOCC(=O)N[C@H](C(=O)N5C[C@H](O)C[C@H]5C(=O)N[C@@H](C)c5ccc(-c6scnc6C)cc5)C(C)(C)C)nc4c3F)c12 | 299 |
| CCc1cccc2cc(O)cc(-c3ncc4c(N5C[C@H]6CC[C@@H](C5)N6)nc(OC[C@@H]5CCCN5CC5CCN(CCC(=O)N[C@H](C(=O)N6C[C@H](O)C[C@H]6C(=O)N[C@@H](C)c6ccc(-c7scnc7C)cc6)C(C)(C)C)CC5)nc4c3F)c12 | 2160 |
| CCc1cccc2cc(O)cc(-c3ncc4c(N5C[C@H]6CC[C@@H](C5)N6)nc(OC[C@@H]5CCCN5CCCOCCC(=O)N[C@H](C(=O)N5C[C@H](O)C[C@H]5C(=O)N[C@@H](C)c5ccc(-c6scnc6C)cc5)C(C)(C)C)nc4c3F)c12 | 908 |

# input for lookup
IC50 for `CC(=O)N[C@H](C(=O)N1C[C@H](O)C[C@H]1C(=O)N[C@@H](C)c1ccc(-c2scnc2C)cc1)C(C)(C)C` is 343

###

- TARGET UNDER TEST: von Hippel-Lindau disease tumor suppressor/GTPase KRas (Homo sapiens, UniProt P01116+P40337, G12D)
- Sequence (P01116 whole entry G12D, stated change not applied): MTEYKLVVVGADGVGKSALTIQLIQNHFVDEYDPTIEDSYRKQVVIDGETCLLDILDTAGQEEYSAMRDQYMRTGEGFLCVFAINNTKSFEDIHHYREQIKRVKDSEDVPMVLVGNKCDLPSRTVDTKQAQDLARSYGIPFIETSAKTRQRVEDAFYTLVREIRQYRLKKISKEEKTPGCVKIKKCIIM
- Sequence (P40337 whole entry, stated change not applied): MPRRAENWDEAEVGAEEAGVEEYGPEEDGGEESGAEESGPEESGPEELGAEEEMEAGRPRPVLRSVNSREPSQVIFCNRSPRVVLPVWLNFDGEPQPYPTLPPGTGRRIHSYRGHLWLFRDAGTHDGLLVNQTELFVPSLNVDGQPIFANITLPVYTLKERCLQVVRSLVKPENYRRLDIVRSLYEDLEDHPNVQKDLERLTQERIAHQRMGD
- PROTOCOL DESCRIPTION: PROTAC activity at VHL/KRAS G12D mutant in human ASPC1 cells assessed as induction of protein degradation incubated for 24 hrs by Western blot analysis
- Assay type: cell-based
- CONDITION DETAILS: read-out: DC50
PROPERTY LABEL: DC50 (µM)
Express your answer in µM, writing the number without its unit.

| MOLECULAR STRING | DC50 (µM) |
| --- | --- |
| CCc1cccc2cc(O)cc(-c3ncc4c(N5C[C@H]6CC[C@@H](C5)N6)nc(OC[C@@H]5CCCN5CCCCCCCC(=O)N[C@H](C(=O)N5C[C@H](O)C[C@H]5C(=O)N[C@@H](C)c5ccc(-c6scnc6C)cc5)C(C)(C)C)nc4c3F)c12 | 2.26 |

# input for lookup
DC50 for `CCc1c(F)ccc2cc(O)cc(-c3ncc4c(N5C[C@H]6CC[C@@H](C5)N6)nc(OC[C@@H]5CCCN5CCCCOCC(=O)N[C@H](C(=O)N5C[C@H](O)C[C@H]5C(=O)N[C@@H](C)c5ccc(-c6scnc6C)cc5)C(C)(C)C)nc4c3F)c12` is 0.0381

###

- Test system: von Hippel-Lindau disease tumor suppressor/GTPase KRas (Homo sapiens), P01116+P40337 [G12D]
- PROTOCOL DESCRIPTION: PROTAC activity at VHL/KRAS G12D mutant in human ASPC1 cells assessed as induction of protein degradation incubated for 24 hrs by Western blot analysis relative to control
- Format: cell-based
PROPERTY LABEL: Emax

Emax for `CCc1c(F)ccc2cc(O)cc(-c3ncc4c(N5C[C@H]6CC[C@@H](C5)N6)nc(OC[C@@H]5C[C@@H](F)CN5CCCCOCC(=O)N[C@H](C(=O)N5C[C@H](O)C[C@H]5C(=O)N[C@@H](C)c5ccc(-c6scnc6C)cc5)C(C)(C)C)nc4c3F)c12` is 96.2%

###

- PROTOCOL DESCRIPTION: Competitive binding affinity to His-tagged VHL/Elongin C/Elongin B/KRAS G12D mutant (unknown origin) by FP assay
- Set-up: species or system Homo sapiens
I'd appreciate it if you marked entries condition met when IC50 is lower than 30 nM and condition not met when it is not.

Would you kindly verify if IC50 of `CCc1c(F)ccc2cc(O)cc(-c3ncc4c(N5C[C@H]6CC[C@@H](C5)N6)nc(OC[C@@H]5CCCN5CCCCOCC(=O)N[C@H](C(=O)N5C[C@H](O)C[C@H]5C(=O)N[C@@H](C)c5ccc(-c6scnc6C)cc5)C(C)(C)C)nc4c3F)c12` is strictly less than 30 nM?
condition met

Would you kindly verify if IC50 of `CC(=O)N[C@H](C(=O)N1C[C@H](O)C[C@H]1C(=O)N[C@@H](C)c1ccc(-c2scnc2C)cc1)C(C)(C)C` is strictly less than 30 nM?
condition not met

Would you kindly verify if IC50 of `CCc1cccc2cc(O)cc(-c3ncc4c(N5C[C@H]6CC[C@@H](C5)N6)nc(OC[C@@H]5CCCN5CCCOCCC(=O)N[C@H](C(=O)N5C[C@H](O)C[C@H]5C(=O)N[C@@H](C)c5ccc(-c6scnc6C)cc5)C(C)(C)C)nc4c3F)c12` is strictly less than 30 nM?
condition met

Would you kindly verify if IC50 of `CCc1cccc2cc(O)cc(-c3ncc4c(N5C[C@H]6CC[C@@H](C5)N6)nc(OC[C@@H]5CCCN5CC5CCN(CCC(=O)N[C@H](C(=O)N6C[C@H](O)C[C@H]6C(=O)N[C@@H](C)c6ccc(-c7scnc7C)cc6)C(C)(C)C)CC5)nc4c3F)c12` is strictly less than 30 nM?
condition not met

Would you kindly verify if IC50 of `CCc1cccc2cc(O)cc(-c3ncc4c(N5C[C@H]6CC[C@@H](C5)N6)nc(OC[C@@H]5CCCN5CCCCOCC(=O)N[C@H](C(=O)N5C[C@H](O)C[C@H]5C(=O)N[C@@H](C)c5ccc(-c6scnc6C)cc5)C(C)(C)C)nc4c3F)c12` is strictly less than 30 nM?
condition met

###

- PROTOCOL DESCRIPTION: Cooperativity factor alpha, ratio of IC50 for His-tagged VHL/Elongin C/Elongin B (unknown origin) to IC50 for His-tagged VHL/Elongin C/Elongin B/KRAS (unknown origin)
PROPERTY LABEL: Ratio IC50
I only need the number, thanks.

Ratio IC50 for `CCc1cccc2cc(O)cc(-c3ncc4c(N5C[C@H]6CC[C@@H](C5)N6)nc(OC[C@@H]5CCCN5CC5CCN(CCC(=O)N[C@H](C(=O)N6C[C@H](O)C[C@H]6C(=O)N[C@@H](C)c6ccc(-c7scnc7C)cc6)C(C)(C)C)CC5)nc4c3F)c12` is 26.9

Ratio IC50 for `CCc1c(F)ccc2cc(O)cc(-c3ncc4c(N5C[C@H]6CC[C@@H](C5)N6)nc(OC[C@@H]5CCCN5CCCCOCC(=O)N[C@H](C(=O)N5C[C@H](O)C[C@H]5C(=O)N[C@@H](C)c5ccc(-c6scnc6C)cc5)C(C)(C)C)nc4c3F)c12` is 15.9

Ratio IC50 for `CC(=O)N[C@H](C(=O)N1C[C@H](O)C[C@H]1C(=O)N[C@@H](C)c1ccc(-c2scnc2C)cc1)C(C)(C)C` is 0.9

Ratio IC50 for `CCc1cccc2cc(O)cc(-c3ncc4c(N5C[C@H]6CC[C@@H](C5)N6)nc(OC[C@@H]5CCCN5CCC(=O)NCCC(=O)N[C@H](C(=O)N5C[C@H](O)C[C@H]5C(=O)N[C@@H](C)c5ccc(-c6scnc6C)cc5)C(C)(C)C)nc4c3F)c12` is 76.2

###

Measured Emax by item
- Test system: von Hippel-Lindau disease tumor suppressor/GTPase KRas (Homo sapiens), P01116+P40337 [G12D]
- PROTOCOL DESCRIPTION: PROTAC activity at VHL/KRAS G12D mutant in human ASPC1 cells assessed as induction of protein degradation incubated for 24 hrs by Western blot analysis relative to control
- Type: cell-based
Express your answer in %, writing the number without its unit.

| MOLECULAR STRING | MEAS VALUE |
| --- | --- |
| CCc1cccc2cc(O)cc(-c3ncc4c(N5C[C@H]6CC[C@@H](C5)N6)nc(OC[C@@H]5CCCN5CC5CCN(CCC(=O)N[C@H](C(=O)N6C[C@H](O)C[C@H]6C(=O)N[C@@H](C)c6ccc(-c7scnc7C)cc6)C(C)(C)C)CC5)nc4c3F)c12 | 29.8 |

Emax for `CCc1cccc2cc(O)cc(-c3ncc4c(N5C[C@H]6CC[C@@H](C5)N6)nc(OC[C@@H]5CCCN5CCCCC(=O)N[C@H](C(=O)N5C[C@H](O)C[C@H]5C(=O)N[C@@H](C)c5ccc(-c6scnc6C)cc5)C(C)(C)C)nc4c3F)c12` is 96.7

Emax for `CCc1cccc2cc(O)cc(-c3ncc4c(N5C[C@H]6CC[C@@H](C5)N6)nc(OC[C@@H]5CCCN5C5CCC6(CC5)CCN(CC(=O)N[C@H](C(=O)N5C[C@H](O)C[C@H]5C(=O)N[C@@H](C)c5ccc(-c7scnc7C)cc5)C(C)(C)C)CC6)nc4c3F)c12` is 53.9

Emax for `CCc1cccc2cc(O)cc(-c3ncc4c(N5C[C@H]6CC[C@@H](C5)N6)nc(OC[C@@H]5CCCN5CCOCCC(=O)N[C@H](C(=O)N5C[C@H](O)C[C@H]5C(=O)N[C@@H](C)c5ccc(-c6scnc6C)cc5)C(C)(C)C)nc4c3F)c12` is 89.5
